Listed next: entries and their corresponding GI50.
Test system: MDA-MB-435
Experiment: NCI tumour cell line growth inhibition, 48 h
The source made the active and inactive calls. Cut-off read from the data, not from the text of the source: active = GI50 up to about 1.1 µM and inactive = higher.
MEASUREMENT_KIND: GI50

COMPOUND	ASSAY_SYSTEM	MEASUREMENT_KIND	RESULT
O=C(Nc1sccc1S(=O)(=O)c1ccc(Cl)cc1)c1ccccc1	MDA-MB-435	GI50	> 100 µM (inactive)
C[C@@H]1C(O)CC[C@H](C)C12CC=CC2=O (stereo partly specified)	MDA-MB-435	GI50	> 100 µM (inactive)
Cn1c(N)cc(=O)nc1N	MDA-MB-435	GI50	> 100 µM (inactive)
CCCCNc1nc(O)c2[nH]cnc2n1	MDA-MB-435	GI50	> 100 µM (inactive)
Cc1ccc(NC(=O)/C(Cc2nc3ccc([N+](=O)[O-])cc3nc2O)=N\NC(=O)C[n+]2ccccc2)c(C)c1	MDA-MB-435	GI50	97.3 µM (inactive)
Cc1nnc2n1N=C(c1cc(F)c(Cl)cc1Cl)/C(=C/c1ccc(-c3ccc([N+](=O)[O-])cc3)o1)S2	MDA-MB-435	GI50	50.4 µM (inactive)
COc1ccc(/C=C2\N=C(c3ccccc3)OC2=O)cc1OC(C)=O	MDA-MB-435	GI50	51.8 µM (inactive)
COc1ccc(CSc2ccccc2Cn2cccc2)cc1OC	MDA-MB-435	GI50	> 100 µM (inactive)
COc1cc2c(c(O)c1OC)C(=O)C1CCC(=O)N1C2c1cccc2ccccc12 (stereo unspecified)	MDA-MB-435	GI50	44.5 µM (inactive)
CC(C)NC(=O)OCCN=C1c2ccccc2C(Br)C(Br)c2ccccc21 (stereo unspecified)	MDA-MB-435	GI50	7.96 µM (inactive)
c1ccc(/N=c2/[nH]c3ccccc3s/c2=N/c2ccccc2)cc1	MDA-MB-435	GI50	> 100 µM (inactive)
OCC(O)C(O)C(C=NNc1ncnc2ccc(Br)cc12)=NNc1ncnc2ccc(Br)cc12 (stereo unspecified)	MDA-MB-435	GI50	4.79 µM (inactive)
CCN(CC)CCO/N=C1/C=C2CCC3C(CC[C@@]4(C)C3CC[C@]4(C)O)[C@@]2(C)CC1 (stereo partly specified)	MDA-MB-435	GI50	1.69 µM (inactive)
Cn1c(=O)oc2cc(C(=S)N3CCC(Cc4ccccc4)CC3)ccc21	MDA-MB-435	GI50	91.8 µM (inactive)
N=c1c2c(=S)n(-c3ccccc3)c(=S)n(-c3ccccc3)c2nc(SCCN2CCOCC2)n1-c1ccccc1	MDA-MB-435	GI50	1.82 µM (inactive)
O=C(NCCCNCCNC(=O)c1cc(-c2ccccc2)nc2ccccc12)c1cc(-c2ccccc2)nc2ccccc12	MDA-MB-435	GI50	1.72 µM (inactive)
C/C(=N/c1[nH]c(=O)cc2c1C(=O)CC2)N(C)C	MDA-MB-435	GI50	> 200 µM (inactive)
COc1ccc(C(C)NNC(=O)c2cc[n+]([BH2-]C#N)cc2)cc1F (stereo unspecified)	MDA-MB-435	GI50	> 100 µM (inactive)
COc1ccc(N2C(=O)C3c4[nH]c5c(C)cccc5c4C4CCC(C(C)(C)C)CC4C3C2=O)cc1 (stereo unspecified)	MDA-MB-435	GI50	> 10 µM (inactive)
CC(=O)CC[N+](C)(C)C	MDA-MB-435	GI50	37.8 µM (inactive)
CN(C)c1ccc(/C=N/c2nc3cc4sc(/N=C/c5ccc(N(C)C)cc5)nc4cc3s2)cc1	MDA-MB-435	GI50	33.7 µM (inactive)

---

Listed next: entries and their corresponding GI50.
System: OVCAR-5
Experiment: NCI tumour cell line growth inhibition, 48 h
Active and inactive are the calls of the source. Cut-off read from the data, not from the text of the source: active = GI50 up to about 1.1 µM and inactive = higher.
MEASUREMENT_KIND: GI50

MOLECULE	RESULT
Cc1ccc(S(=O)(=O)N2CCSCCSCCSCCN(S(=O)(=O)c3ccc(C)cc3)CC2)cc1	> 100 µM (inactive)
O=C(N/C(=C\c1ccc([N+](=O)[O-])cc1)c1nc2ccccc2[nH]1)c1ccccc1	> 100 µM (inactive)
CCCS(=O)(=O)/C(=C(\c1ccc(Br)cc1)S(=O)(=O)CCC)c1ccc(Br)cc1	> 10 µM (inactive)
COc1ccc(C2c3cc4c(cc3OC3(OC)COC(=O)C23)OCO4)c(OC)c1 (stereo not given)	54.7 µM (inactive)
CSc1ccc(/C=C2\CN(C)C/C(=C\c3ccc(SC)cc3)C2=O)cc1	> 100 µM (inactive)
Cc1csc2n(C)c(=O)c3ccccc3[n+]12	> 100 µM (inactive)
COc1cc(-c2ccccc2)cn2c1nc1ccccc12	15 µM (inactive)
O=c1c2ccccc2c2c1c1c3ccccc3c(=O)c1c1c3ccccc3c(=O)c21	> 100 µM (inactive)
NCCNCCNCc1c2ccccc2c(CNCCNCCN)c2ccccc12	> 100 µM (inactive)
COc1ccc(CNc2nc(NCc3ccc(OC)cc3)nc(Nc3ccccc3)n2)cc1	> 100 µM (inactive)

---

Tested on: U-251
Assay: NCI tumour cell line growth inhibition, 48 h
Active and inactive are the calls of the source. No stated cut-off is given here; in the data, active = GI50 up to about 1.1 µM and inactive = higher.
Listed next: entries and their corresponding GI50.

COMPOUND	GI50
COc1cc(C2c3cc4c(cc3OC(NNc3ccccc3)C2C)OCO4)cc(OC)c1OC (stereo not given)	1.12 µM (inactive)
CCOC(=O)c1c(SCCN(CC)CC)n(-c2ccccc2)c(=S)n(-c2ccccc2)c1=O	15.6 µM (inactive)
CN(C)C(=S)/N=c1\ssc(=S)n1Cc1ccco1	1.15 µM (inactive)
CC(C)(C)C1CCC2c3c([nH]c4ccccc34)C3C(=O)N(c4ccccc4[N+](=O)[O-])C(=O)C3C2C1 (stereo not given)	16 µM (inactive)
CSC1(C)CC2C(CC1N1CCCCC1)C2(C)C (stereo not given)	> 100 µM (inactive)

---

System: KM12
Experiment: NCI tumour cell line growth inhibition, 48 h
Calls of active or inactive are those of the source. Cut-off read from the data, not from the text of the source: active = GI50 up to about 1.1 µM and inactive = higher.
Possible outcomes: active, inactive

COMPOUND	GROUP_LABEL
Cc1nnc2n1N=C(c1cc(F)c(Cl)cc1Cl)/C(=C/c1ccc(-c3ccc([N+](=O)[O-])cc3)o1)S2	inactive
O=C(/C=C/c1ccc([N+](=O)[O-])cc1)N1CCN(CCOC(c2ccc(F)cc2)c2ccc(F)cc2)CC1	inactive
COc1cc2oc(-c3ccc(O)cc3O)c(CC=C(C)C)c(=O)c2c(O)c1/C=C/C(C)C	inactive
CC(=O)C1=C(O)C(N)C2Cc3c(c(O)c4c(O)c(C)ccc4c3C)C(=O)C2(O)C1=O (stereo not drawn)	inactive
Cc1cccc2c1NC(=S)[C@@H]1CCCN1C2=O	inactive
COc1ccc(Nc2nc(N)c(C(=O)c3ccco3)s2)cc1	inactive
COc1ccc(OC)c(/C=C(/C#N)c2ccccc2)c1	inactive
OCC(O)C(O)C(C=NNc1ncnc2ccc(Br)cc12)=NNc1ncnc2ccc(Br)cc12 (stereo not drawn)	inactive
Nc1ccccc1C(=O)CCC1C(=O)NC(=S)NC1=O	inactive
CC(C)(C)OC(=O)NC(Cc1ccc(OCc2ccccc2)cn1)C(N)=O (stereo not drawn)	inactive
CCOC(=O)Cn1c(C(F)(F)F)nc2nc(Cl)c(Cl)nc21	inactive
OC(c1ccccc1)C1CC2C=CC1C2 (stereo not drawn)	inactive
NNc1cnn(-c2ccccc2)c(=O)c1Cl	inactive
CC(=O)Nc1ccc(-c2nnc(SCC(=O)Nc3cccc([N+](=O)[O-])c3)o2)cc1	inactive
O=c1oc2ccccc2c(O)c1C(C/C(CCN1CCCC1)=N/O)c1ccccc1 (stereo not drawn)	inactive
COc1cccc(NC(=O)/C(CS(=O)(=O)CCC(C(C)=O)C(C)=O)=N/NC(C)(C)C)c1	inactive
Nc1c(C(=O)N/N=C/c2ccc(Cl)cc2)sc(=S)n1-c1ccccc1	inactive
COc1ccc2c(c1)/C(=C(\C(Cl)=C(\Cl)N1CCCCC1)[N+](=O)[O-])N2	inactive
CCCS(=O)(=O)/C(=C(\c1ccc(Br)cc1)S(=O)(=O)CCC)c1ccc(Br)cc1	inactive
CC(C)(C)c1c2c(c(C(C)(C)C)c3c1OCN(Cc1ccccc1)C3)OCN(Cc1ccccc1)C2	inactive
O=C(/C(=C(/Br)I)c1ccccc1)c1ccccc1	inactive
CC#Cc1ccc(-c2ccccc2)s1	inactive
O/N=C1\CC2(N3CCOCC3)CCC1(c1ccccc1)CC2	inactive
CC(=O)OC1COC(n2nc(N)nc2C)C(OC(C)=O)C1OC(C)=O (stereo not drawn)	inactive
COc1ccc(CSc2ccccc2Cn2cccc2)cc1OC	inactive
O=C(Nc1ccc(Cl)cc1Cl)C1C(=O)N(c2ccc(Cl)cc2Cl)C(=O)/C1=N\Nc1ccc([N+](=O)[O-])cc1[N+](=O)[O-] (stereo not drawn)	inactive
COc1cc(OC)c2ssc3c(OC)cc(OC)c4ssc1c2-c43	inactive
COc1cc(C2c3cc4c(cc3OC(C)(N3CCCC3)C2C)OCO4)cc(OC)c1OC (stereo not drawn)	active
CCC1([N+](=O)[O-])CC2C=CC1C2 (stereo not drawn)	inactive
COc1cc(/C=C2\N=C(C)N(n3c(-c4ccccc4)nc4ccccc4c3=O)C2=O)cc(OC)c1OC	inactive
OC1=CN=C(C2CC2)Oc2ccccc21	inactive
COc1cc(C2SCC(=O)N2c2cccc(Cl)c2)cc(OC)c1OC (stereo not drawn)	inactive
C=C(C)[C@@H]1CC[C@]2(C(=O)O)CC[C@]3(C)[C@H](CC[C@@H]4[C@@]5(C)CC(=O)C(C)(C)[C@@H]5CC[C@]43C)[C@@H]12	inactive
O=[N+]([O-])c1ccccc1S(=O)(=O)c1ccccc1	inactive
NC(=S)Nc1nnc(-c2ccc(-c3nnc(NC(N)=S)o3)cc2)o1	inactive
COc1c2cc(C(C)(C)C)cc1Cc1cccc(c1OCc1cccc([N+](=O)[O-])c1)Cc1cc(C(C)(C)C)cc(c1OC)Cc1cccc(c1OCc1cccc([N+](=O)[O-])c1)Cc1cc(C(C)(C)C)cc(c1OC)Cc1cccc(c1OCc1cccc([N+](=O)[O-])c1)C2	inactive
COc1cc(-c2c3c(cc4c2OCO4)[C@@H](Nc2ccc4c(c2)Cc2cc(N[C@@H]5c6cc7c(cc6C(c6cc(OC)c(O)c(OC)c6)[C@H]6C(=O)OC[C@H]56)OCO7)ccc2-4)[C@H]2COC(=O)[C@@H]2C3)cc(OC)c1O (stereo partly drawn)	inactive
CCOC(=O)c1cccc(/N=N/c2ncc(/C=C/C(=O)OC)[nH]2)c1	inactive
